- Tested on: SH-SY5Y
- assay: Neuroprotective activity against H2O2-induced oxidative stress in human SH-SY5Y cells assessed as cell viability at 10 uM preincubated for 2 hrs followed by H2O2 stimulation for 30 mins followed by further incubation for 24 hrs by MTT assay relative to control
- Assay type: functional
- measurement context: read-out: Activity
endpoint label: viability at 10 µM (%)
Entry rule: numbers only, all in %.

Field viability at 10 µM (entry COc1ccc(CN2CCN(C(=O)O[C@H]3CC[C@@]4(C)[C@H](CC[C@@H]5[C@@H]4CC[C@]4(C)[C@@H]6[C@H](C[C@@H]54)O[C@]4(CC[C@@H](C)CO4)[C@H]6C)C3)CC2)cc1 ) reads 4.8

Field viability at 10 µM (entry CC(C)CNC(=O)O[C@H]1CC[C@@]2(C)[C@H](CC[C@@H]3[C@@H]2CC[C@]2(C)[C@@H]4[C@H](C[C@@H]32)O[C@]2(CC[C@@H](C)CO2)[C@H]4C)C1 ) reads 9.2

Field viability at 10 µM (entry C[C@@H]1CC[C@@]2(OC1)O[C@H]1C[C@H]3[C@@H]4CC[C@@H]5C[C@@H](OC(=O)NCc6ccccc6)CC[C@]5(C)[C@H]4CC[C@]3(C)[C@H]1[C@@H]2C ) reads 5.8

Field viability at 10 µM (entry C[C@@H]1CC[C@@]2(OC1)O[C@H]1C[C@H]3[C@@H]4CC[C@@H]5C[C@@H](OC(=O)N(C)C)CC[C@]5(C)[C@H]4CC[C@]3(C)[C@H]1[C@@H]2C ) reads 6.3

Field viability at 10 µM (entry COc1cc(CN2CCN(C(=O)O[C@H]3CC[C@@]4(C)[C@H](CC[C@@H]5[C@@H]4CC[C@]4(C)[C@@H]6[C@H](C[C@@H]54)O[C@]4(CC[C@@H](C)CO4)[C@H]6C)C3)CC2)ccc1O ) reads 10.3

---

- Tested on: SH-SY5Y
- assay: Neuroprotective activity against H2O2-induced oxidative stress in human SH-SY5Y cells assessed as cell viability at 10 uM preincubated for 2 hrs followed by H2O2 stimulation for 30 mins followed by further incubation for 24 hrs by MTT assay relative to control
- Type: functional
- measurement context: read-out: Activity
List of viability at 10 µM values.
Entry rule: numbers only, all in %.

Please review the entries below; each comes with its answer.
{"compound structure string": "C[C@@H]1CC[C@@]2(OC1)O[C@H]1C[C@H]3[C@@H]4CC[C@@H]5C[C@@H](O)CC[C@]5(C)[C@H]4CC[C@]3(C)[C@H]1[C@@H]2C", "endpoint label": "viability at 10 µM", "units of measure": "%", "observed result": 3.5}
{"compound structure string": "C[C@@H]1CC[C@@]2(OC1)O[C@H]1C[C@H]3[C@@H]4CC[C@@H]5C[C@@H](OC(=O)N6CCN(Cc7ccccc7)CC6)CC[C@]5(C)[C@H]4CC[C@]3(C)[C@H]1[C@@H]2C", "endpoint label": "viability at 10 µM", "units of measure": "%", "observed result": 36.9}
{"compound structure string": "C[C@@H]1CC[C@@]2(OC1)O[C@H]1C[C@H]3[C@@H]4CC[C@@H]5C[C@@H](OC(=O)NCc6ccc(Cl)cc6)CC[C@]5(C)[C@H]4CC[C@]3(C)[C@H]1[C@@H]2C", "endpoint label": "viability at 10 µM", "units of measure": "%", "observed result": 45.5}

Field viability at 10 µM (entry COc1ccc(CNC(=O)O[C@H]2CC[C@@]3(C)[C@H](CC[C@@H]4[C@@H]3CC[C@]3(C)[C@@H]5[C@H](C[C@@H]43)O[C@]3(CC[C@@H](C)CO3)[C@H]5C)C2)cc1 ) reads 17.9

---

List of inhibition at 10 µM values.
- Test system: RAW264.7
- assay: Neuroprotective activity against LPS-induced oxidative stress in mouse RAW264.7 cells assessed as reduction in NO production at 10 uM preincubated for 30 mins followed by LPS stimulation for 20 hrs by Griess reagent based microplate reader assay relative to control
- Assay type: functional
Entry rule: numbers only, all in %.

Please review the entries below; each comes with its answer.
{"compound structure string": "COc1ccc(CNC(=O)O[C@H]2CC[C@@]3(C)[C@H](CC[C@@H]4[C@@H]3CC[C@]3(C)[C@@H]5[C@H](C[C@@H]43)O[C@]3(CC[C@@H](C)CO3)[C@H]5C)C2)cc1", "units of measure": "%", "inhibition at 10 µM": 9.2}
{"compound structure string": "C[C@@H]1CC[C@@]2(OC1)O[C@H]1C[C@H]3[C@@H]4CC[C@@H]5C[C@@H](OC(=O)N6CCN(Cc7ccc(Cl)cc7)CC6)CC[C@]5(C)[C@H]4CC[C@]3(C)[C@H]1[C@@H]2C", "units of measure": "%", "inhibition at 10 µM": 15.2}
{"compound structure string": "Cc1ccc(CNC(=O)O[C@H]2CC[C@@]3(C)[C@H](CC[C@@H]4[C@@H]3CC[C@]3(C)[C@@H]5[C@H](C[C@@H]43)O[C@]3(CC[C@@H](C)CO3)[C@H]5C)C2)cc1", "units of measure": "%", "inhibition at 10 µM": 6.8}
{"compound structure string": "C[C@@H]1CC[C@@]2(OC1)O[C@H]1C[C@H]3[C@@H]4CC[C@@H]5C[C@@H](OC(=O)N6CCN(Cc7ccccc7)CC6)CC[C@]5(C)[C@H]4CC[C@]3(C)[C@H]1[C@@H]2C", "units of measure": "%", "inhibition at 10 µM": 18.3}
{"compound structure string": "C[C@@H]1CC[C@@]2(OC1)O[C@H]1C[C@H]3[C@@H]4CC[C@@H]5C[C@@H](OC(=O)NCc6ccc(Cl)cc6)CC[C@]5(C)[C@H]4CC[C@]3(C)[C@H]1[C@@H]2C", "units of measure": "%", "inhibition at 10 µM": 17.6}

Field inhibition at 10 µM (entry C[C@@H]1CC[C@@]2(OC1)O[C@H]1C[C@H]3[C@@H]4CC[C@@H]5C[C@@H](OC(=O)N6CCN(Cc7ccc(C#N)cc7)CC6)CC[C@]5(C)[C@H]4CC[C@]3(C)[C@H]1[C@@H]2C ) reads 23.5

Field inhibition at 10 µM (entry C[C@@H]1CC[C@@]2(OC1)O[C@H]1C[C@H]3[C@@H]4CC[C@@H]5C[C@@H](OC(=O)N6CCN(Cc7ccccc7O)CC6)CC[C@]5(C)[C@H]4CC[C@]3(C)[C@H]1[C@@H]2C ) reads 7.02

---

- Tested on: SH-SY5Y
- assay: Neuroprotective activity against H2O2-induced oxidative stress in human SH-SY5Y cells assessed as cell viability at 10 uM preincubated for 2 hrs followed by H2O2 stimulation for 30 mins followed by further incubation for 24 hrs by MTT assay relative to control
- Format: functional
- measurement context: read-out: Activity
List of viability at 10 µM values.
Entry rule: numbers only, all in %.

Please review the entries below; each comes with its answer.
{"compound structure string": "C[C@@H]1CC[C@@]2(OC1)O[C@H]1C[C@H]3[C@@H]4CC[C@@H]5C[C@@H](OC(=O)N6CCN(Cc7ccc(C#N)cc7)CC6)CC[C@]5(C)[C@H]4CC[C@]3(C)[C@H]1[C@@H]2C", "target entity": "SH-SY5Y", "endpoint label": "viability at 10 µM", "observed result": 40.5}
{"compound structure string": "C[C@@H]1CC[C@@]2(OC1)O[C@H]1C[C@H]3[C@@H]4CC[C@@H]5C[C@@H](OC(=O)N6CCN(Cc7ccc(Cl)cc7)CC6)CC[C@]5(C)[C@H]4CC[C@]3(C)[C@H]1[C@@H]2C", "target entity": "SH-SY5Y", "endpoint label": "viability at 10 µM", "observed result": 34.8}
{"compound structure string": "Cc1ccc(CNC(=O)O[C@H]2CC[C@@]3(C)[C@H](CC[C@@H]4[C@@H]3CC[C@]3(C)[C@@H]5[C@H](C[C@@H]43)O[C@]3(CC[C@@H](C)CO3)[C@H]5C)C2)cc1", "target entity": "SH-SY5Y", "endpoint label": "viability at 10 µM", "observed result": 29.2}

// switching to the query molecule
Item C[C@@H]1CC[C@@]2(OC1)O[C@H]1C[C@H]3[C@@H]4CC[C@@H]5C[C@@H](OC(=O)N6CCN(Cc7ccccc7O)CC6)CC[C@]5(C)[C@H]4CC[C@]3(C)[C@H]1[C@@H]2C ; assay system SH-SY5Y; viability at 10 µM reported as 38.4
